- TARGET_OF_ASSAY: human glucagon receptor (human, UniProt P47871 26-477)
- Sequence (P47871 26-477): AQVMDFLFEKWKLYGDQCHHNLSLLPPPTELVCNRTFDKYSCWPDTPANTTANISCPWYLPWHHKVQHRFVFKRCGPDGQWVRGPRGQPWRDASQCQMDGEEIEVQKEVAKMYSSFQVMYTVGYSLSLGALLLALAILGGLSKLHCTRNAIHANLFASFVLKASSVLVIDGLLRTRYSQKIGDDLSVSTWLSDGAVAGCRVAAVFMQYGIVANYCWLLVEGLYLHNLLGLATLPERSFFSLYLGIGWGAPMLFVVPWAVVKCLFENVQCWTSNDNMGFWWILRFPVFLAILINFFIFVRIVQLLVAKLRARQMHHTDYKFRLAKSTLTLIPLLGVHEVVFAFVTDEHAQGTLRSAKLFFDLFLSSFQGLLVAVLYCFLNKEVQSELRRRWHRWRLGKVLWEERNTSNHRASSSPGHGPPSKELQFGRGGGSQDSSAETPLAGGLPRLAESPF
- METHOD_NOTES: cell-based or functional assay
READOUT: EC50 hGlucagon-R (cAMP) (pM)
Numeric only. Scale: pM

Requested field: EC50 hGlucagon-R (cAMP). Item: HXQGTFTSDLSKQKESRAAXLFIEWLKNGGPSSGAPPPS (dSer at 2; K(x53) at 14; Aib at 20; C-terminal NH2) [SEQ ID NO: 122]
156

Requested field: EC50 hGlucagon-R (cAMP). Item: HXQGTFTSDLSKQKESRRAQDFIEWLKNGGPSSGAPPPS (dSer at 2; K(γE-x53) at 14; C-terminal NH2) [SEQ ID NO: 116]
3.6

Requested field: EC50 hGlucagon-R (cAMP). Item: HXQGTFTSDLSKQKESKAAQDFIEWLKAGGPSSGAPPPS (dSer at 2; K(γE-x53) at 14; C-terminal NH2) [SEQ ID NO: 24]
9.4

Requested field: EC50 hGlucagon-R (cAMP). Item: HXQGTFTSDLSKQKDSRRAQDFIEWLKAXGPSSGAPPPS (dSer at 2; K(γE-X70) at 14; dAla at 29; C-terminal NH2) [SEQ ID NO: 161]
2.4

Requested field: EC50 hGlucagon-R (cAMP). Item: HXHGTFTSDLSKQKDSKAAQLFIEWLKAXGPSSGAPPPS (dSer at 2; K(γE-X70) at 14; dAla at 29; C-terminal NH2) [SEQ ID NO: 138]
9.2

Requested field: EC50 hGlucagon-R (cAMP). Item: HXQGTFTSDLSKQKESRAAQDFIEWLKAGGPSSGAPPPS (dSer at 2; K(γE-x70) at 14; C-terminal NH2) [SEQ ID NO: 51]
3
